Source of measurements: patent US20190106460A1

The entries below are paired with their reported inhibition at 10 µM.
- Tgt: Skp2 (Homo sapiens)
- Sequence (Q13309 whole entry, species assumed): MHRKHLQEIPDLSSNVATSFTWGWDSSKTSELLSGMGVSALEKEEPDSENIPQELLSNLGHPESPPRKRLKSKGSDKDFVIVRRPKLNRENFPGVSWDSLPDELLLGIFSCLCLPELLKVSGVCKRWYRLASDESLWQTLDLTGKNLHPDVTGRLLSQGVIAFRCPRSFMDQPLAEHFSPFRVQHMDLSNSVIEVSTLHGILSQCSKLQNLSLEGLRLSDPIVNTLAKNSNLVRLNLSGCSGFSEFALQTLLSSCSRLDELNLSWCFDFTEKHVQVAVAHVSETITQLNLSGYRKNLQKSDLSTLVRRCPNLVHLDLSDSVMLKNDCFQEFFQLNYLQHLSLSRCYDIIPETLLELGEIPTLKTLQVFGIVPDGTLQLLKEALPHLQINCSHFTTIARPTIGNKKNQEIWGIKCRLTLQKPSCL
- Sequence (P63208 whole entry partner, species assumed): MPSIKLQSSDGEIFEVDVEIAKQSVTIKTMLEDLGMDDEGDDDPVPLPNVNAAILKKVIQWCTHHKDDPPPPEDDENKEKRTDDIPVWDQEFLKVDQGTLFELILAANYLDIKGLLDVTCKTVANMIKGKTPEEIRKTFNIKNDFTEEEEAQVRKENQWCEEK
- Sequence (Q13616 whole entry partner, species assumed): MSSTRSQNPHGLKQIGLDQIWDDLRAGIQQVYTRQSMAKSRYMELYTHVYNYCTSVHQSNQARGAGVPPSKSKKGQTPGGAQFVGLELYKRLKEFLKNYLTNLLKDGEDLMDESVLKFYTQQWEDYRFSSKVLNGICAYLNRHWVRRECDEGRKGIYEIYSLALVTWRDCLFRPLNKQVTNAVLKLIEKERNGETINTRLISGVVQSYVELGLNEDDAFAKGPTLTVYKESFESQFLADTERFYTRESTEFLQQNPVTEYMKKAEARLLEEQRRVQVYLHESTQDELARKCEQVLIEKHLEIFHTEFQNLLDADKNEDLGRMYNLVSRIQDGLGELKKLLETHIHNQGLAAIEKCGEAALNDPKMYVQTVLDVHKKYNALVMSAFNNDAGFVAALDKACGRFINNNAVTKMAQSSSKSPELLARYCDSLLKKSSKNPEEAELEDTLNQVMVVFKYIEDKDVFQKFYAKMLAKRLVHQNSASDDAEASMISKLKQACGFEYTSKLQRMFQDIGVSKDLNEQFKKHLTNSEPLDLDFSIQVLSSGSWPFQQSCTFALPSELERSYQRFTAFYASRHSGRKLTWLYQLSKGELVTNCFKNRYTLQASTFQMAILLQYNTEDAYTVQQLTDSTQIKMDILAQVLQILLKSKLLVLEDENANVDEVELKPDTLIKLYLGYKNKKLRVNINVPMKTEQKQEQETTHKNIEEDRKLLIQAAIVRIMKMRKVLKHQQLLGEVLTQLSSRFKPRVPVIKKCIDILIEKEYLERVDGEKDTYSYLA
- Sequence (P62877 whole entry partner, species assumed): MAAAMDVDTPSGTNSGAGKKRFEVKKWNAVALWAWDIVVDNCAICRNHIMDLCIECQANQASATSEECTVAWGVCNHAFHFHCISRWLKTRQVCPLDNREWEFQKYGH
- Assay Details: Selectivity assay vs other E3s: Skp2
- Assay type: biochemical
- Condition Context: read-out: % Inhibition Skp2 @ 10 μM
Starred links: 1 amine or outer side, 2 acyl side, 3 side chain; linkers in the order of their positions; H or OH if unused. Non-standard residues stand in square brackets, D forms with d. Residues, ends and D or L forms follow the SMILES beside them. *: point of attachment. Phe(4-NO2) = N[C@@H](Cc1ccc([N+](=O)[O-])cc1)C(=O)O; Phe(3-Cl) = N[C@@H](Cc1cccc(Cl)c1)C(=O)O; Phe(3-F) = N[C@@H](Cc1cccc(F)c1)C(=O)O; 1Nal = N[C@@H](Cc1cccc2ccccc12)C(=O)O; NMeE = CN[C@@H](CCC(=O)O)C(=O)O; Suc = O=C(CCC(=O)[*:2])[*:1]; Tos = Cc1ccc(S(=O)(=O)*)cc1
Number in %, nothing else.

Solved entries:
Return inhibition at 10 µM for the following molecule: NC(=O)[C@H](CCC(=O)O)NC(=O)[C@H](Cc1cccc2ccccc12)NC(=O)[C@H](Cc1ccc([N+](=O)[O-])cc1)NC(=O)CNC(=O)[C@H](CCC(=O)O)NC(=O)CCC(=O)O [UBP011, Suc-EGF(4NO2)1NalE-NH2] (Suc-EG[Phe(4-NO2)][1Nal]E-NH2) 12

Supply recorded inhibition at 10 µM for CC(=O)N[C@H](CC(=O)O)C(=O)N[C@@H](CCC(=O)O)C(=O)NCC(=O)N[C@@H](Cc1cccc(F)c1)C(=O)N[C@@H](Cc1c[nH]c2ccccc12)C(=O)N[C@@H](CCC(=O)O)C(N)=O [UBP017, Ac-dEGF(3F)WE-NH2] (Ac-[dD]EG[Phe(3-F)]WE-NH2) here. 10

Tell us which inhibition at 10 µM value is on record for NC(=O)[C@H](CCC(=O)O)NC(=O)[C@H](Cc1ccccc1)NC(=O)[C@H](Cc1ccccc1)NC(=O)CNC(=O)[C@H](CCC(=O)O)NC(=O)CCC(=O)O [UBP002, Suc-EGFFE-NH2] (Suc-EGFFE-NH2) 14

Let us examine a further case.
Give the measured inhibition at 10 µM for Cc1ccc(S(=O)(=O)N[C@H](CC(=O)O)C(=O)N[C@@H](CCC(=O)O)C(=O)NCC(=O)N[C@@H](Cc2cccc(Cl)c2)C(=O)N[C@@H](Cc2c[nH]c3ccccc23)C(=O)N(C)[C@@H](CCC(=O)O)C(N)=O)cc1 [UBP033, Ts-dEGF(3Cl)WE(Me)-NH2] (Tos-[dD]EG[Phe(3-Cl)]W[NMeE]-NH2) 0

----------
Entries annotated with measured IC50
- Tgt: βTrCP (Homo sapiens, UniProt Q9Y297)
- Sequence (Q9Y297 whole entry, one chain of several): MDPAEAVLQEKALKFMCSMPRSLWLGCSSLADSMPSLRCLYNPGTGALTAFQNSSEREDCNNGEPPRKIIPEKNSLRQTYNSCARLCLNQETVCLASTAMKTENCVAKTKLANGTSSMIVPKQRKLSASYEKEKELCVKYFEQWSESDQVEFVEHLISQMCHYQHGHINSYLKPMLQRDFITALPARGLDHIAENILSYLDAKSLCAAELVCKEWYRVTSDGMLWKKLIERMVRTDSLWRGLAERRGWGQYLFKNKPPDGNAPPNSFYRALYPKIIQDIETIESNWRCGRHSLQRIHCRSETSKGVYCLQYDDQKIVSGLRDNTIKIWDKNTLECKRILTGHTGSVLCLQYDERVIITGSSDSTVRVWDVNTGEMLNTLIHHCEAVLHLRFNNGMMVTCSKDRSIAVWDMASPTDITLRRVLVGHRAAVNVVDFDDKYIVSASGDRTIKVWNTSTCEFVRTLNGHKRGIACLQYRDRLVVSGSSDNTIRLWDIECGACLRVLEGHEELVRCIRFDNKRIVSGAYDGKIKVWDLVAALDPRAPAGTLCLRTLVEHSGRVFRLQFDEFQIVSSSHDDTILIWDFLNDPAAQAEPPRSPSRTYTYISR
- Assay Details: Fluorescence polarisation (FP) binding assay with fluorescein-tagged IκB peptide
- Condition Context: Table 11, with spread; read-out: FP IC50/μM
Starred links: 1 amine or outer side, 2 acyl side, 3 side chain; linkers in the order of their positions; H or OH if unused. Non-standard residues stand in square brackets, D forms with d. Residues, ends and D or L forms follow the SMILES beside them. *: point of attachment. Phe(4-NO2) = N[C@@H](Cc1ccc([N+](=O)[O-])cc1)C(=O)O; Phe(3-F) = N[C@@H](Cc1cccc(F)c1)C(=O)O; 1Nal = N[C@@H](Cc1cccc2ccccc12)C(=O)O; Suc = O=C(CCC(=O)[*:2])[*:1]; Tos = Cc1ccc(S(=O)(=O)*)cc1
Could you give me the number in µM? Just the number is fine.

# example entries with known answers
Using the record for Cc1ccc(S(=O)(=O)N[C@@H](CC(=O)O)C(=O)N[C@@H](CCC(=O)O)C(=O)NCC(=O)N[C@@H](Cc2cccc(F)c2)C(=O)N[C@@H](Cc2c[nH]c3ccccc23)C(=O)N[C@@H](CCC(=O)O)C(N)=O)cc1 [Ts-DEGF(3F)WE-NH2] (Tos-DEG[Phe(3-F)]WE-NH2) , state its measured IC50. 0.018

Read the entry Cc1ccc(S(=O)(=O)N[C@H](CC(=O)O)C(=O)N[C@@H](CC(=O)O)C(=O)NCC(=O)N[C@@H](Cc2cccc(F)c2)C(=O)N[C@@H](Cc2c[nH]c3ccccc23)C(=O)N[C@@H](CCC(=O)O)C(N)=O)cc1 [UBP025, Ts-dDGF(3F)WE-NH2] (Tos-[dD]DG[Phe(3-F)]WE-NH2) and write its reported IC50. 0.025

More entries:
Tell me measured IC50 for NC(=O)[C@H](CCC(=O)O)NC(=O)[C@H](Cc1ccccc1)NC(=O)[C@H](Cc1ccccc1)NC(=O)CNC(=O)[C@H](CCC(=O)O)NC(=O)CCC(=O)O [UBP002, Suc-EGFFE-NH2] (Suc-EGFFE-NH2) please. 3.18

// Input: NC(=O)[C@H](CCC(=O)O)NC(=O)[C@H](Cc1cccc2ccccc12)NC(=O)[C@H](Cc1ccc([N+](=O)[O-])cc1)NC(=O)CNC(=O)[C@H](CCC(=O)O)NC(=O)CCC(=O)O [UBP011, Suc-EGF(4NO2)1NalE-NH2] (Suc-EG[Phe(4-NO2)][1Nal]E-NH2) . Output its IC50 only. 1.31
